parameter: melting point

Recorded melting point, per entry:
Cc1cccc(N2CC(=O)N(c3ccc(S(N)(=O)=O)cc3Cl)C2)c1
198 to 202 °C
CC(C)c1ccc(C(=O)Cl)cc1S(N)(=O)=O
177 °C
CCCCCCCCCCCCCCSc1ccc(C(=O)O)o1
84 to 86 °C
CCOC(=O)c1ccc(-c2nc3ccc(C)cn3c2CNC(=O)CC(C)C)cc1
230 to 231 °C
Cn1c(C(F)(F)F)cc(=O)n(-c2c(F)cc(Cl)c3nc(N)oc23)c1=O
144 to 150 °C
C#C[C@H]1CC[C@H](C(=O)O)CC1
161 to 162 °C

Which melting point is listed for COc1ccc([C@@H](O)[C@@H](N)Cc2ccc(C(F)(F)F)cc2)cc1 (racemic) ?
116 to 117 °C

Cc1nc2ccc(-c3ccc(OCC4(NC(=O)OCc5ccccc5)COC4)cc3)nn2c1-c1cnc(N)c(C(F)(F)F)c1 ?
209 to 212 °C

CCCCCC#CCC(CC#CCCCCC)(C(=O)NO)S(=O)(=O)c1ccc(OC)cc1 ?
83 to 84 °C

Brc1c(OCc2ccc3ccccc3n2)ccc2ccccc12 ?
130 to 132 °C

CC(C)=NOCc1nc2c(N)nc3ccccc3c2s1 ?
152 to 153 °C

N=C(Nc1ccccc1)Nc1ncccc1OCc1c(Cl)cccc1Cl ?
163 to 165 °C

COc1ccccc1Oc1ccccc1N ?
68 to 70 °C

CNc1nc(-c2cccc(NC(=O)c3ccc(OCc4ccccc4)cc3)c2)c2cc(OC)c(OC)cc2n1 ?
110 to 112 °C

Oc1ccc(C2=NCCCO2)cc1 ?
196 to 198 °C

COc1ccc(C2CCN(C(=O)CC(N)=O)CC2)cc1OC1CCCC1 ?
132 to 133 °C

Cc1c(CC(=O)OCCO[N+](=O)[O-])cc(-c2ccc(S(C)(=O)=O)cc2)n1-c1ccccc1 ?
124 to 126 °C

CCCCOc1ccc(-n2cc(C(=O)OCC)cn2)cc1C#N ?
132 °C

O=C(C=Cc1ccc(Br)cc1)N1CCc2c([nH]c3ccccc23)C1c1ccc2c(c1)OCO2 (stereo not given) ?
188 to 190 °C

Cc1ncccc1CN(CCn1cc(C)c2occc2c1=O)Cc1ccc2c(c1)NC(=O)C(C)(C)C(=O)N2C1CC1 ?
191 to 193 °C

CN(C)C(=O)n1cc2c(n1)-c1ccc(Cl)cc1C(c1ccccc1Cl)=NC2 ?
175 to 176 °C

COc1ccc(C(=O)N2CCN(C(=O)C3=Cc4cc(OC)c(OC)cc4CC3)CC2)cc1OC ?
190 to 191 °C

COC(=O)c1cccc(-c2ncc(OCCCN(C)C)cn2)c1 ?
66 °C

O=C1Nc2cc(Cl)ccc2C1c1ncnc2c1cnn2C1CCCC1 (stereo not given) ?
288 to 291 °C

Cc1nc2ccccn2c(=O)c1CCN1CCc2oc3ccccc3c2C1 ?
186 °C

====

Measured melting point of individual entries

Recorded melting point, per entry:
N#CC=C1CCN(c2ccc(N3C[C@@H](Cn4cc(C#N)nn4)OC3=O)cc2F)CC1
78 to 80 °C
Clc1nc2ncsc2nc1Cl
124 to 125 °C
Cn1c(C=O)nnc1NCCCOc1cccc(CN2CCCCC2)c1
157 to 158 °C
COc1ccc(-c2ccc(OC)cc2[N+](=O)[O-])c([N+](=O)[O-])c1
134 to 137 °C
O=C1CC(O)c2c1cc[nH]c2=O (configuration not stated)
200 °C
COc1ccc(OC)c2c1C[C@](O)(CC#N)CC21SCCS1
173 to 174 °C

Which melting point is listed for C=Cc1ccc(C=CC#N)cc1 ?
45.8 °C

====

parameter: melting point

Recorded melting point, per entry:
CC1(C)OOC23CCCCC2CC(=O)OC3O1 (stereo unspecified)
106 to 107 °C
CCOC(=O)N1CCC(N(Cc2ccccc2)C(=S)Nc2ccccc2[N+](=O)[O-])CC1
140 °C

Which melting point is listed for CN(CCCCCCCC(=O)O)c1cnc(-c2ccccc2)c(-c2ccccc2)n1 ?
116 to 117 °C

O=C(NCc1cccc(C(F)(F)F)c1)c1ccc2n1Cc1ccccc1N(C(=O)COc1ccc(Cl)cc1)C2 ?
143 to 145 °C

====

Measured melting point of individual entries

Recorded melting point, per entry:
N#Cc1cc(-c2ccc(Cl)cc2)nc(Oc2ccc(F)c(C(F)(F)F)c2)n1
131 to 132 °C
COc1ccc(C2(C#Cc3ccc([N+](=O)[O-])cc3)CCC3(CC2)OCCO3)cc1OC1CCCC1
58 to 59 °C

Which melting point is listed for CCN(CC)C(=O)CCC(=O)Oc1cc(-n2c(=O)cc(C(F)(F)F)n(C)c2=O)c(F)cc1Cl ?
91 to 93 °C

CNC(=O)c1ccc(NC(=O)OC(C)(C)C)cc1 ?
185 °C

CCOC(=O)C1=C(C)Nc2ccn(C)c(=O)c2C1c1ccccc1OC (centres undefined) ?
225 °C

====

Measured melting point of individual entries

Which melting point is listed for N#CC(=Cc1ccccc1F)C(O)C#N (stereo unspecified) ?
122 °C

Cc1cc2c(cc1F)N(C(N)=O)C(=O)C2 ?
200 to 203 °C

====

parameter: melting point

Recorded melting point, per entry:
N[C@@H](CSCCC1CCN(C(=O)OCc2ccccc2)CC1)C(=O)O
185 to 188 °C
CCOC(=O)CN1CCN(C(=O)OC(C)(C)C)CC1
67 to 69 °C
Cc1ccc2c(c1)C=Cc1cc(C)ccc1C2c1cn(Cc2ccc(C(=O)Nc3nc(CC(=O)O)cs3)o2)c(=O)[nH]c1=S
210 °C
CC(C)(c1ccc(Oc2ccc(N)cc2)cc1)c1cccc(C(C)(C)c2ccc(Oc3ccc(N)cc3)cc2)c1
180 °C
c1ccc(Oc2cccc3c2CCN(Cc2c[nH]c4ncccc24)C3)cc1
179 to 180 °C

Which melting point is listed for Nc1c(-c2cc(Cl)ccc2O)c2cc([N+](=O)[O-])ccc2[nH]c1=O ?
344 to 347 °C

CC(C)(C)c1ccc(-c2nc(COc3cccc4cc(NS(=O)(=O)C(F)(F)F)ccc34)co2)cc1 ?
165 to 167 °C

N#CC1C(=O)NC(=O)C12C(=O)N(Cc1ccc(Br)cc1F)c1ccccc12 (centres undefined) ?
208 to 210 °C

O=C(NN1CCCCC1)c1cn(-c2ccc(Br)cc2)c(-c2ccc(Cl)cc2Cl)n1 ?
219 to 221 °C

====

Measured melting point of individual entries

Recorded melting point, per entry:
Cn1nc(CO)cc1OCCCN1CCN(c2cccc3sccc23)CC1
124 to 126 °C
NC1(CCC(O)(P(=O)(O)O)P(=O)(O)O)CCCCC1
143 °C
Cc1nn(-c2ccc(F)cc2)cc1C(=O)N(CCCC(=O)O)c1ccc(OCC(C)(C)C)c(C#N)c1
178 to 180 °C
CCOC(=O)Cc1ccc(NC(=O)C(CC(C)C)NS(=O)(=O)c2ccc(Cl)cc2)cc1 (racemic)
117 to 120 °C
CCOC(=O)C1[C@@H]2[C@@H](O)[C@@H]3O[C@H](c4ccc(C(F)(F)F)cc4)OC[C@H]3O[C@H]12 (some centres undefined)
128 to 131 °C

Which melting point is listed for O=C(O)COc1cc(Cl)ccc1C(=O)NCc1cccc([N+](=O)[O-])c1 ?
200 °C

Cc1ccc(Cc2cnc(NCCCCc3ncc(I)cc3C)[nH]c2=O)cn1 ?
160 to 162 °C

COc1ccc2cc(-c3ccc(-n4nc(C)c(C)n4)c(Cl)c3)c(=O)oc2c1 ?
170 °C

O=C(O)COc1ccc(SCc2cccc(OCc3ccc(Cl)c(C(F)(F)F)c3)c2)c2c1CCC2 ?
121 to 122 °C

====

Measured melting point of individual entries

Recorded melting point, per entry:
O=C(c1cccc(F)c1)N1CC2CC2(c2ccccc2)C1 (stereo unspecified)
68 to 69.5 °C
Cc1cnc2ccc(N)cc2n1
170 to 173 °C
CC(C)(C)c1cc2c(c(C(C)(C)C)c1O)CCO2
113 °C

Which melting point is listed for CCc1nsc(C(=O)NC(C)C)c1C(=O)OC ?
55 to 56 °C

Cc1cccc2c1NC(C)c1nnnn1-2 (stereo unspecified) ?
159 to 161 °C

====

Measured melting point of individual entries

Recorded melting point, per entry:
CNc1ccc(Nc2nc(N3CCOCC3)nc(-n3c(C(F)F)nc4c(OC)cccc43)n2)cn1
218 to 221 °C
O=C(O)CN(CCc1ccccc1)C(=O)CCc1nc2c(F)c(F)cc(F)c2s1
139 to 140 °C
CCN1CCc2ccc(Nc3ncc(Cl)c(Nc4cc(Cl)ccc4C(=O)NC)n3)cc2CC1
223 °C

The record that follows has no melting point shown yet.
Which melting point is listed for CC(C)c1ccc(S(=O)(=O)NC(=O)C(Oc2cc(OCc3ccsc3)ccc2C#N)c2ccccc2)cc1 (racemic) ?
187 to 189 °C

src = a melting point compilation (Tetko et al.; mined from patent text by program, amines drawn as free bases though some values may be those of a salt)
